test system: 786-O; assay: Euclidean distance of Cell Painting phenotypic profile (signed KS, 77 features) to DMSO centroid (dimensionless distance); 5 or 10 uM (library dependent); higher = stronger phenotypic change vs DMSO (phenoactivity); details: 48 h
reported property: Euclidean distance
Give bare numbers.

INSERT INTO results (compound_structure, result) VALUES
  ('CC(=O)O/N=C1\C(=O)N(Cc2cc(Cl)ccc2Cl)c2ccc(Cl)cc21', 0.757),
  ('CC(C)c1cc(C(=O)N2Cc3ccc(CN4CCN(C)CC4)cc3C2)c(O)cc1O', 3.5),
  ('COc1ccccc1O', 0.884),
  ('CCOc1cc2ncc(C#N)c(Nc3ccc(OCc4ccccn4)c(Cl)c3)c2cc1NC(=O)/C=C/CN(C)C', 2.26);

Hey, can you go through the list below and give me Euclidean distance for every item?
1. CC[C@H]1OC(=O)[C@H](C)[C@@H](O[C@H]2C[C@@](C)(OC)[C@@H](O)[C@H](C)O2)[C@H](C)[C@@H](O[C@@H]2O[C@H](C)C[C@H](N(C)C)[C@H]2O)[C@](C)(O)C[C@@H](C)[C@@H]2N[C@@H](COCCOC)O[C@H]([C@H]2C)[C@]1(C)O
2. Cc1c(N(C)C)c(=O)n(-c2ccccc2)n1C
3. Nc1nc(=O)[nH]cc1F
4. COc1cc2ncnc(Sc3nnc(C)s3)c2cc1OC

Result:
0.963
1.3
1.25
1.26

---

Field: Euclidean distance. Provide a value for each of the compounds that follow.
system: HEPG2; assay: Euclidean distance of Cell Painting phenotypic profile (signed KS, 77 features) to DMSO centroid (dimensionless distance); 5 or 10 uM (library dependent); higher = stronger phenotypic change vs DMSO (phenoactivity); settings: 48 h
Where a name gives a salt, the structure may show the parent alone.
Answers are plain numbers.

Please review the following examples before continuing.
INSERT INTO measurements (compound, target_desc, reported_property, result) VALUES
  ('COCCc1ccc(OCC(O)CNC(C)C)cc1 (centres undefined) [Metroprolol succinate]', 'HEPG2', 'Euclidean distance', 0.935),
  ('CC(C)(C)NC[C@H](O)c1ccc(O)c(CO)c1 [levalbuterol tartrate]', 'HEPG2', 'Euclidean distance', 0.566),
  ('CC(=O)c1ccc(S(=O)(=O)NC(=O)NC2CCCCC2)cc1 [Acetohexamide]', 'HEPG2', 'Euclidean distance', 0.469);

Turning to the following compound.
Query: Observed Euclidean distance on HEPG2 for "C[C@H]1O[C@@H](Oc2c(-c3cc(O)c(O)c(O)c3)oc3cc(O)cc(O)c3c2=O)[C@@H](O)[C@@H](O)[C@@H]1O" , please.
Result: 0.535

---

system: A549; test: Euclidean distance of Cell Painting phenotypic profile (signed KS, 77 features) to DMSO centroid (dimensionless distance); 5 or 10 uM (library dependent); higher = stronger phenotypic change vs DMSO (phenoactivity); conditions: 48 h
Where a name gives a salt, the structure may show the parent alone.
reported property: Euclidean distance

INSERT INTO assay_data (molecule, result) VALUES
  ('Cn1c(=O)c2c(ncn2CC2OCCO2)n(C)c1=O', 0.81),
  ('N=C(NOCC(O)CN1CCCCC1)c1cccnc1 (stereo not given)', 0.912),
  ('CCN(CC)CCOC(=O)C1(C2CCCCC2)CCCCC1 [Dicyclomine HCl]', 1.1),
  ('CC(=O)OC1CC2CCC1(C)C2(C)C (stereo not given) [Bornyl acetate]', 0.894),
  ('CN1CCN(CCOc2cc(OC3CCOCC3)c3c(Nc4c(Cl)ccc5c4OCO5)ncnc3c2)CC1', 3.83),
  ('C[C@@H]1CN(CC(=O)Nc2ccc3c(c2)Cc2cccc(-c4cc(=O)cc(N5CCOCC5)o4)c2S3)C[C@H](C)O1', 1.25);

// batch mode: one Euclidean distance value per listed entry
1. Nc1ccn([C@H]2CC[C@@H](CO)O2)c(=O)n1
2. CO/N=C(\C(=O)N[C@@H]1C(=O)N2C(C(=O)O)=CCS[C@H]12)c1csc(N)n1 [Ceftizoxime sodium]
3. O=C(CCCCCCC(=O)NO)NO [Suberohydroxamic acid]
4. OCCN1C[C@H](O)[C@@H](O)[C@H](O)[C@H]1CO

Result:
1: 0.768; 2: 0.807; 3: 1.22; 4: 0.649

---

tested on: DU145; experiment: Euclidean distance of Cell Painting phenotypic profile (signed KS, 77 features) to DMSO centroid (dimensionless distance); 5 or 10 uM (library dependent); higher = stronger phenotypic change vs DMSO (phenoactivity); settings: 48 h
Where a name gives a salt, the structure may show the parent alone.
So I've got a bunch of molecules here, and I need their Euclidean distance values.
One number for each entry.

Look over these answered cases.
INSERT INTO results (molecule, reported_property, result) VALUES
  ('O=C(N/N=C/c1ccc(O)c(O)c1)c1cc2ccccc2cc1O', 'Euclidean distance', 0.791),
  ('O=C(/C=C/c1ccc(O)cc1)c1ccc(O)cc1O', 'Euclidean distance', 1.16),
  ('CC(C)(Sc1ccncc1-c1ccc(C#N)c2ccccc12)C(=O)O [Verinurad (RDEA3170)]', 'Euclidean distance', 0.864),
  ('Cc1ncc(C[n+]2csc(CCO)c2C)c(N)n1 [Thiamine HCl (Vitamin B1)]', 'Euclidean distance', 0.753);

The record that follows has no Euclidean distance shown yet.
Query: Look up Euclidean distance: "O=C1C[C@@H](c2ccc(O)cc2)Oc2cc(O)cc(O)c21"
Result: 0.744

---

test system: DU145; assay: Euclidean distance of Cell Painting phenotypic profile (signed KS, 77 features) to DMSO centroid (dimensionless distance); 5 or 10 uM (library dependent); higher = stronger phenotypic change vs DMSO (phenoactivity); conditions: 48 h
Where a name gives a salt, the structure may show the parent alone.
Would you kindly list Euclidean distance for each of these compounds?
Numbers only.

Some compounds with recorded Euclidean distance:
INSERT INTO measurements (compound, target_desc, result) VALUES
  ('Cc1[nH]nc2ccc(-c3cncc(OC[C@@H](N)Cc4ccccc4)c3)cc12', 'DU145', 3.94),
  ('CCCN(CCC)C(=O)C1=Cc2ccc(-c3ccc(C(=O)N4CCCC4)cc3)cc2N=C(N)C1', 'DU145', 1.35),
  ('O=C1NC(=O)C(c2ccccc2)(c2ccccc2)N1', 'DU145', 1);

Hi there! I need Euclidean distance for each item below, if you can.
1. COc1cc(N2CCC(N3CCN(C)CC3)CC2)ccc1Nc1ncc(Cl)c(Nc2ccccc2P(C)(C)=O)n1
2. CC[C@]1(O)C[C@H]2CN(CCc3c([nH]c4ccccc34)[C@@](C(=O)OC)(c3cc4c(cc3OC)N(C=O)[C@H]3[C@@](O)(C(=O)OC)[C@H](OC(C)=O)[C@]5(CC)C=CCN6CC[C@]43[C@@H]65)C2)C1
3. Clc1ccc(C(Cn2ccnc2)OCc2c(Cl)cccc2Cl)c(Cl)c1 (stereo not drawn) [Isoconazole nitrate]
4. CO/N=C(\C(=O)N[C@@H]1C(=O)N2C(C(=O)OCOC(=O)C(C)(C)C)=C(/C=C\c3scnc3C)CS[C@H]12)c1csc(N)n1
5. C=CC(=O)Nc1cccc(Nc2nc(Nc3ccc(OCCOC)cc3)ncc2F)c1

Result:
1. 2.68
2. 4.78
3. 1.26
4. 1.67
5. 3.51

# return Euclidean distance for each item in the list
1. Oc1c(I)cc(I)c2cccnc12 [Diiodohydroxyquinoline]
2. COc1cccc(CCc2ccccc2OCC(CN(C)C)OC(=O)CCC(=O)O)c1 (stereo not drawn) [Sarpogrelate hydrochloride]
3. CC(C)NC(=O)COc1cccc(-c2nc(Nc3ccc4[nH]ncc4c3)c3ccccc3n2)c1

Result:
1. 0.746
2. 0.739
3. 3.11

For each entry beneath this line, provide reported Euclidean distance.
1. CO/N=C(\C(=O)N[C@@H]1C(=O)N2C(C(=O)O)=C(CSC(=O)c3ccco3)CS[C@H]12)c1csc(N)n1
2. CC(COc1ccccc1)N(CCCl)Cc1ccccc1 (stereo not drawn) [Phenoxybenzamine HCl]
3. CCCOC(C(=O)OC1CCN(C)CC1)(c1ccccc1)c1ccccc1 [Propiverine hydrochloride]
4. CS(=O)(=O)c1cccc(CNc2nc(Nc3ccc4c(c3)CCC(=O)N4)ncc2C(F)(F)F)c1
5. COc1cccc(-c2c(C)n(Cc3c(F)cccc3C(F)(F)F)c(=O)n(C[C@H](NCCCC(=O)O)c3ccccc3)c2=O)c1F [Elagolix Sodium]
6. CCN(CC)C(=S)SSC(=S)N(CC)CC

Result:
1: 0.719; 2: 1.06; 3: 1.34; 4: 3.07; 5: 1.02; 6: 1.34

Working through the 5 compounds below one at a time, give Euclidean distance for each.
1. CCCSc1ccc2[nH]c(NC(=O)OC)nc2c1
2. CC#CCn1c(N2CCC[C@@H](N)C2)nc2c1c(=O)n(Cc1nc(C)c3ccccc3n1)c(=O)n2C
3. CC(C)(C)C(=O)OCOP(=O)(COCCn1cnc2c(N)ncnc21)OCOC(=O)C(C)(C)C
4. NC(=O)c1cccc2cn(-c3ccc([C@@H]4CCCNC4)cc3)nc12 [Niraparib (MK-4827) tosylate]
5. CCC(=O)NS(=O)(=O)c1ccc(-c2c(-c3ccccc3)noc2C)cc1 [Parecoxib]

Result:
[2.81, 0.641, 2.07, 1.59, 0.471]

Could I get Euclidean distance for every one of these entries?
1. CCCNC(C)C(=O)Nc1ccccc1C (stereo not drawn) [Prilocaine hydrochloride]
2. N#Cc1ccc(C(c2ccc(C#N)cc2)n2cncn2)cc1
3. CCOC(=O)[C@H](CCc1ccccc1)N[C@@H](C)C(=O)N1[C@H](C(=O)O)C[C@@H]2CCC[C@@H]21
4. CCN(CC)CCOC(=O)c1ccc(N)cc1 [Procaine]
5. CN(C)CC/C=C1/c2ccccc2COc2ccc(CC(=O)O)cc21 [Olopatadine HCl]
6. COc1cc2ncc(-c3ccccc3)nc2cc1OC
7. O=C(O)Cc1cccc(OCCCN(Cc2cccc(C(F)(F)F)c2Cl)CC(c2ccccc2)c2ccccc2)c1

Result:
1. 0.635
2. 1.67
3. 0.891
4. 0.941
5. 0.865
6. 1.58
7. 0.825

Give Euclidean distance for each listed item.
1. CN(C)Cc1cccc(N/C(=C2\C(=O)Nc3cc(C(N)=O)ccc32)c2ccccc2)c1
2. CC/C(=C(/CC)c1ccc(O)cc1)c1ccc(O)cc1
3. NCc1ccc(S(N)(=O)=O)cc1 [Mafenide hydrochloride]
4. CN1CCN(C2=Nc3ccccc3Oc3ccc(Cl)cc32)CC1 [Loxapine Succinate]

Result:
1.33
0.96
0.784
1.33

Origin of the recorded values: the supplement of paper PMC10127200
